# assay procedure: physchem
# conditions used: PBS, pH 7.4
If the reported solubility kinetic at 2 h equals or exceeds 10 µM, assign fulfilled. If not, assign not fulfilled.

## Input Quick check, solubility kinetic at 2 h >= 10 µM? Cc1ccnc(SCC(=O)Nc2sc3c(c2C(=O)NCc2ccccc2)CCCC3)n1
## Output not fulfilled

## Input Is solubility kinetic at 2 h at least 10 µM? Consider CN1CCN(CC(=O)Nc2sc3c(c2C(=O)NCc2ccccc2)CCCC3)CC1
## Output fulfilled

## Input Would you say O=C(NCc1ccccc1)c1c(NC(=O)C(F)(F)F)sc2c1CCCC2 shows solubility kinetic at 2 h at minimum 10 µM?
## Output fulfilled

## Input Entry CN1CCN(C(=O)c2c(NC(=O)c3ccccc3F)sc3c2CCC(C(C)(C)C)C3)CC1 (stereo not given) : is its solubility kinetic at 2 h no less than 10 µM?
## Output fulfilled

---
## Input Given Cn1ccnc1SCC(=O)Nc1sc2c(c1C(=O)NCc1ccccc1)CCCC2 , state whether its solubility kinetic at 2 h is at least 10 µM.
## Output not fulfilled
